The measurements presented in this section are drawn from PubChem BioAssay.

experiment: S. cerevisiae RM11-1a growth modifiers, primary screen, strain RM11-1a, OD600, basal, 24 h (AID 1177);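 further: cultures grown under basal conditions with no added stressor; test concentration not given here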
testParameters: OD600, 24 h, higher = more signal, called active from +8 up or from −8 down
Provide the reported z-score of each item.
Give bare numbers.

Completed entries (count: 3):
C=CCNC(=O)[C@H]1[C@@H]2C(=O)O[C@@H](c3ccccc3)[C@@H](c3ccccc3)N2[C@@H](c2ccccc2OCCO)[C@]12C(=O)N(C(=O)OCCOC)c1ccc(C#CCNC(N)=O)cc12 :: 1.04
COc1ccc(-c2cc3c(c(-c4ccccc4)n2)[Si](C(C)C)(C(C)C)O[C@H]3c2ccccc2)cn1 :: -0.824
C=C(COC)C(=O)CC[C@H](OC(=O)c1ccccc1-c1ccccc1C(=O)O)c1cccc(OCCO)c1 :: -5.09

Hi, could you look up z-score for each item in my list?
1. CC(C)[C@H]1NC(=O)[C@@]23C(=O)N[C@@H](Cc4ccccc4)C2[C@H](C)[C@@]2(C)O[C@H]2C3/C=C/C/C=C\CNC(=O)[C@H](C)NC1=O (some centres not stated)
2. CC(C)(C)OC(=O)CC[C@@]1(C(=O)NCc2ccccc2)N=C(c2ccc(OCCCO)cc2)O[C@@H]1c1ccccc1
3. CCN1C(C)=C(C(=O)OC)[C@@H](c2ccccc2)N2C(=O)[C@@]3(C(=O)OC)O[C@@]12[C@@H]1C(=O)N(C)C(=O)[C@@H]13
4. Cc1ccc(S[C@]2(C(=O)O)CC(=O)N(Cc3ccccc3)[C@@H]2c2ccc(CO)cc2)cc1

1. 1.01
2. -0.801
3. 0.335
4. -1.14

###

Provide the reported composite z-score of each item.
experimentalSystem: Dihydroorotate dehydrogenase (quinone), mitochondrial (Plasmodium falciparum (isolate 3D7)) (UniProt Q08210)
Sequence (Q08210 whole entry, looked up): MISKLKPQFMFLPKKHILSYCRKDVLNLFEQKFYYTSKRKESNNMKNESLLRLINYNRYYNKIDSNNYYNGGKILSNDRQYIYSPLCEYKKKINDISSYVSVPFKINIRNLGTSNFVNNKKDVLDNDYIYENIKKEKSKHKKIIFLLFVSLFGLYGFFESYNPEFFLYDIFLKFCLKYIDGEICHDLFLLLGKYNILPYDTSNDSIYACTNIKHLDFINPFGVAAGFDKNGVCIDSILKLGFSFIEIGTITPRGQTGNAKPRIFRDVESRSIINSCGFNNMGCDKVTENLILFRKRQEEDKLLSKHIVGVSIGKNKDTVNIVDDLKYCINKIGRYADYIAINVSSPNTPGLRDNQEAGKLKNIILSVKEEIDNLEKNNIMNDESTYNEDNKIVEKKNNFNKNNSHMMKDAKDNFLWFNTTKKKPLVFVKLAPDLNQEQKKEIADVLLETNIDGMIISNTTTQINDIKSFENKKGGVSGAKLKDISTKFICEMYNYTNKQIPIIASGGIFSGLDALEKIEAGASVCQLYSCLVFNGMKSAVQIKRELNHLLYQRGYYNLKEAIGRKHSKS
experiment: PfDHODH enzyme inhibitors, primary screen, biochemical, C-terminal His tag, absorbance 600 nm (AID 1175);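 further: recombinant parasite enzyme with a five histidine tag at its C terminus; test concentration not given here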
testParameters: DCIP absorbance 600 nm, higher = more signal, called active from +8 up or from −8 down
Answers are plain numbers.

Completed entries (count: 8):
COc1cccc([C@@H]2[C@@H](C)CC[C@H]3C(=O)N4[C@H](c5cccc(OC)c5)[C@@H](C)CC[C@H]4C(=O)N23)c1 :: -1.35
Cc1ccc(S[C@]2(C(=O)NC3CC3)CC(=O)N(Cc3cc(C(F)(F)F)cc(C(F)(F)F)c3)[C@@H]2c2ccc(CO)cc2)cc1 :: -2.37
C=CCN1C(=O)[C@@]2(O[C@@H](CCn3cc([C@H](O)c4ccccc4)nn3)[C@H]([Si](C)(C)c3ccc(OC)cc3)[C@H]2C)c2cc(N3CCOC3=O)ccc21 :: -1.47
C[C@]1(C(=O)NCCN2CCOCC2)c2ccccc2C(=O)N(Cc2ccccc2)[C@H]1c1ccc(CO)cc1 :: 1
CO[C@@H]1COC(=O)CC=C[C@@H](C)[C@H](OC)COC(=O)CC=C[C@H]1C :: -0.136
Cc1cc(C)c(C(O)C2C=CC3C(=O)N(C)C(=O)C3N2N2CCCCC2)c(C)c1 (stereo not given) :: -0.416
N#Cc1ccc(NN2C(C(O)CCc3ccccc3)C=CC3C(=O)N(c4ccccc4)C(=O)C32)cc1 (stereo not given) :: -2.09
CC(C)C[C@@H]1NC(=O)[C@H]2C[C@@H](C(=O)NCCCCCC[N+](C)(C)C)[C@@H](c3ccc(O)cc3)N2C1=O :: -1.51

Hi, could you look up composite z-score for each item in my list?
1. C[N+](C)(C)CCCC[C@@H]1NC(=O)[C@H]2C[C@@H](C(=O)NCc3ccc(F)cc3)[C@@H](c3cccc(OCCO)c3)N2C1=O
2. O=C(NCC(F)(F)F)[C@@H]1c2ccccc2C(=O)N(Cc2ccccc2Cl)[C@H]1c1ccc(CO)cc1

-0.347
-0.731

###

Provide the reported composite z-score of each item.
Tested on: Neuregulin-1 EGF-like domain
experiment: binders of neuregulin-1 EGF-like domain, primary screen, biochemical, small-molecule microarray, 635 nm fluorescence (AID 1081);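 further: binding of the protein to compounds printed on small-molecule microarray slides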
testParameters: small-molecule microarray binding, higher = more signal
Give bare numbers.

Completed entries (count: 10):
COC(=O)C1=CC(c2ccc(CO)cc2)=CC(C2CC2)N(Cc2sc3ccccc3c2Cl)C=C1C(=O)OC (stereo unspecified) :: 1.33
CO[C@H]1COC(=O)[C@H](Cc2ccccc2)NC(=O)CC=C[C@@H](C)[C@H](OC)COC(=O)CC=C[C@@H]1C :: 0.316
C=CCC1=C[C@H]2[C@H]([C@@H]3C=C[C@]2(CC=C)C(=O)[C@]32CO2)[C@@]2(CO2)C1=O :: 0.319
C[N+](C)(C)CCCC[C@@H]1NC(=O)[C@H]2C[C@@H](C(=O)NCc3ccc(F)cc3)[C@@H](c3cccc(OCCO)c3)N2C1=O :: 1.22
COC(=O)Cn1c(C(=O)N2CCCC2)cc2c1C[C@H]1CN(C(=O)c3ccccc3)[C@@](Cc3ccc(OC)cc3)(C(=O)OC)[C@@H]21 :: 1.27
C=C(COC)/C(=C/C[C@H](OC(C)=O)c1ccc(OCCO)cc1)c1cnc2ccccc2c1 :: 0.99
CC(=O)NCCCC[C@@H]1NC(=O)[C@H]2C[C@@H](C(=O)NCCCCCCN(C)C)[C@@H](c3ccc(O)cc3)N2C1=O :: 1.48
CCCNC(=O)[C@@H]1c2ccccc2C(=O)N(C2CCCCC2)[C@H]1c1ccc(CO)cc1 :: 1.29
O=C1C2C=CC(C(O)Cc3ccccc3)N(Nc3ccc([N+](=O)[O-])cc3)C2C(=O)N1c1ccccc1 (stereo unspecified) :: 1.33
O=C(CS)NCCCCCCNC(=O)[C@@H]1C[C@@H]2C(=O)N[C@@H](Cc3ccccc3)C(=O)N2[C@@H]1c1ccc(O)cc1 :: 1.41

Hi, could you look up composite z-score for each item in my list?
1. COCCOC(=O)N1C(=O)[C@@]2(c3cc(C#CC4=CCCCC4)ccc31)[C@H](C(=O)NC[C@H](O)c1ccccc1)[C@H]1C(=O)O[C@H](c3ccccc3)[C@H](c3ccccc3)N1[C@@H]2c1ccccc1OCCO
2. CCC(=O)[C@]12O[C@@]3([C@@H]4C(=O)OCC[C@@H]41)N(Cc1ccccc1)C(C)=C(C(=O)OC)[C@@H](c1ccccc1)N3C2=O
3. [N-]=[N+]=NCc1ccccc1C[C@@]1(C(=O)N2CCOCC2)N=C(c2ccc(OCCCO)cc2)O[C@@H]1c1ccccc1N=[N+]=[N-]
4. COCCOC(=O)N1C(=O)[C@@]2(c3cc(C#CC4=CCCCC4)ccc31)[C@H](c1ccc(O)cc1)N1[C@H](c3ccccc3)[C@H](c3ccccc3)OC(=O)[C@H]1[C@@H]2C(=O)N1CCCCCCC1
5. O=C1O[C@H](c2ccccc2)[C@H](c2ccccc2)N2[C@H]1[C@@H](C(=O)NC[C@H](O)c1ccccc1)[C@]1(C(=O)Nc3ccc(C#CC4(O)CCCCCC4)cc31)[C@H]2c1ccc(OCCO)cc1
6. COCCOC(=O)N1C(=O)[C@@]2(c3cc(C#CCCO)ccc31)[C@H](c1ccc(OCCO)cc1)N1[C@H](c3ccccc3)[C@H](c3ccccc3)OC(=O)[C@H]1[C@@H]2C(=O)NC[C@H](O)c1ccccc1
7. CCCNC(=O)[C@@]1(Sc2ccc(C)cc2)CC(=O)N(Cc2ccccc2Cl)[C@@H]1c1ccc(CO)cc1

1: 1.09; 2: -0.814; 3: 1.26; 4: 0.359; 5: 1.24; 6: 1.25; 7: 1.3

###

experimentalSystem: Epidermal growth factor receptor (Homo sapiens) (UniProt P00533)
Sequence (P00533 whole entry, looked up): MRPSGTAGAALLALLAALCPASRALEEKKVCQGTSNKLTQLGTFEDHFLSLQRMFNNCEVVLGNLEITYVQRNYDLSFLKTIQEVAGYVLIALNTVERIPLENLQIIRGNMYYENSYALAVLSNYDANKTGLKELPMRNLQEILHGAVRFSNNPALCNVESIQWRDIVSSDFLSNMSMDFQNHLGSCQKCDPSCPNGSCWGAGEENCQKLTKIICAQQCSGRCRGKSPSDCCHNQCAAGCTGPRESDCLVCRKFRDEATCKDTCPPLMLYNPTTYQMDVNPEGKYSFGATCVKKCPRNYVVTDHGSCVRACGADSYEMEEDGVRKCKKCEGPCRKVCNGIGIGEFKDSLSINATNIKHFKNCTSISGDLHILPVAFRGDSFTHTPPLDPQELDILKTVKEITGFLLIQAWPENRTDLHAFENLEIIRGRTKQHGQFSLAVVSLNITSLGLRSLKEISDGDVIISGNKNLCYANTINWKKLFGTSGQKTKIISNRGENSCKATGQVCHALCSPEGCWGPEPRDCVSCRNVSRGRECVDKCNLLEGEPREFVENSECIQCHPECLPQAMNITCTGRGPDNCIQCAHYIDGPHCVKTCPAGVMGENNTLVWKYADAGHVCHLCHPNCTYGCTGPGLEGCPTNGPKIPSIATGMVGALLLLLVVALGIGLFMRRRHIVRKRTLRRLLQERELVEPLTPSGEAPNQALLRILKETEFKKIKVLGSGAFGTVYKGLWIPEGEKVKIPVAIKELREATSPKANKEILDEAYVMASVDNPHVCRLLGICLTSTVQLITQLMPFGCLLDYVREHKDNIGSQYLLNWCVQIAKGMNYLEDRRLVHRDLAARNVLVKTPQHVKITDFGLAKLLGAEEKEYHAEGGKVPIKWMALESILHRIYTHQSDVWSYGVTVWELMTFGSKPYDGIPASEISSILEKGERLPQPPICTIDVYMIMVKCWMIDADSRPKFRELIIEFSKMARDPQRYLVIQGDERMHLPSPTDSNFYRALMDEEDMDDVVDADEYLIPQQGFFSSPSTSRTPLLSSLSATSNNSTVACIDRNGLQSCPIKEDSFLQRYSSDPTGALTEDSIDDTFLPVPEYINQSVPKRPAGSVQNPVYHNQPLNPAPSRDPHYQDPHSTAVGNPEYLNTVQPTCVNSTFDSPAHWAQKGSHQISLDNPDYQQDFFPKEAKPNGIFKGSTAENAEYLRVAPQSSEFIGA
experiment: EGFR binders on small-molecule microarrays, primary screen, biochemical, small-molecule microarray, 635 nm fluorescence (AID 1104);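 further: score merges 667 nm emission intensity with spot signal to noise over triplicate slides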
testParameters: EGFR binding, higher = more signal
Provide the reported composite z-score of each item.
One number for each entry.

CO[C@H]1O[C@H](CO)[C@@H](OC(=O)Nc2ccccc2)[C@H](OC(=O)Nc2ccc3c(c2)OCO3)[C@@H]1OC(=O)Nc1ccc2c(c1)OCO2 :: -0.374
[N-]=[N+]=NCc1ccccc1C[C@@]1(C(=O)O)N=C(c2ccc(OCCCO)cc2)O[C@@H]1c1ccccc1N=[N+]=[N-] :: 0.0583
C=C(CCCC)/C(=C/C[C@@H](OC(=O)c1ccncc1)c1ccc(CO)o1)c1cnc2ccccc2c1 :: 1.36
COCCOC(=O)N1C(=O)[C@@]2(c3cc(C#CCCO)ccc31)[C@H](c1ccc(OCCO)cc1)N1[C@H](c3ccccc3)[C@H](c3ccccc3)OC(=O)[C@H]1[C@@H]2C(=O)NC[C@H](O)c1ccccc1 :: 0.776

Hi, could you look up composite z-score for each item in my list?
1. COc1cc(Cc2cc3c(c(CCc4ccccc4)n2)[Si](C(C)C)(C(C)C)OC3)cc(OC)c1OC
2. Cc1ccc(S(=O)(=O)c2cc3oc2CC[C@@H](CO)NC(=O)N(C)Cc2cn(nn2)C[C@H](Cc2ccccc2)NC3=O)cc1

[0.0831, -0.497]

Which composite z-score value belongs to C=CCc1cccc([C@@H]2[C@@H](C)CC[C@H]3C(=O)N4[C@H](c5cccc(CC=C)c5)[C@@H](C)CC[C@H]4C(=O)N23)c1 ?
0.654
